Reported values of IC50 for individual entries
Target: UniProt:P49840
Sequence (P49840 whole entry): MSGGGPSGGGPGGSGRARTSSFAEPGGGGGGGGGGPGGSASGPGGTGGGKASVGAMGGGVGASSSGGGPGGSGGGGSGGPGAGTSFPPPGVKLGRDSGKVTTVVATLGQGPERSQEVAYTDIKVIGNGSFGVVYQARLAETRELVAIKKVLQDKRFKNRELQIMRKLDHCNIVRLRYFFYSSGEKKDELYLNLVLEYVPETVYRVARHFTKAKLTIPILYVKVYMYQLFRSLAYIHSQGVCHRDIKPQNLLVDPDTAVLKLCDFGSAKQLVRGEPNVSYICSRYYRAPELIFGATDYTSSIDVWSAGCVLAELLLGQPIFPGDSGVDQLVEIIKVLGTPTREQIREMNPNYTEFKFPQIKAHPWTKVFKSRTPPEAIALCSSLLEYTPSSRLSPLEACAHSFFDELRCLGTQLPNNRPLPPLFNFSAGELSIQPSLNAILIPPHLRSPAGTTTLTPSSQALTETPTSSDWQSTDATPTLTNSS
Experiment: GSK3α TR-FRET kinase assay
Assay type: biochemical
Settings: 1 nM GSK3α, 4 μM ATP, 30 minute preincubation; geometric mean; read-out: GSK3-A TR-FRET BIOCHEMICAL (TR-FRET); GMean; IC50

Worked set:
{"columns": ["COMPOUND", "TARGET_OR_SYSTEM", "REPORTED_PROPERTY", "RESULT"],
 "data": [
  ["CC[C@@]1(c2cccc(-c3cnn(C(F)F)c3)c2)C2=C(CC(C)(C)NC2=O)Nc2n[nH]cc21 [Compound 948816]", "UniProt:P49840", "IC50", "> 5000 nM"],
  ["CC1(C)CC(=O)C2=C(C1)Nc1n[nH]c(Br)c1[C@@]21CCc2c(F)cccc21 [Compound 806938]", "UniProt:P49840", "IC50", "100 to 1000 nM"],
  ["CC[C@]1(c2ccccc2)C2=C(CC(C)(C)[C@@H](F)C2=O)Nc2n[nH]cc21 [Compound 826766]", "UniProt:P49840", "IC50", "100 to 1000 nM"],
  ["Cc1[nH]nc2c1C(C)(c1cccc(C(F)(F)F)c1)C1=C(CC(C)(C)CC1=O)N2 (stereo not drawn) [Compound 811556]", "UniProt:P49840", "IC50", "≤ 100 nM"],
  ["CCC1(c2cccc(Oc3ncccn3)c2)C2=C(CC(C)(C)NC2=O)Nc2n[nH]cc21 (stereo not drawn) [Compound 948764]", "UniProt:P49840", "IC50", "≤ 100 nM"],
  ["CCC1(c2cccc(C(F)F)c2)C2=C(CC(C)(C)CC2=O)Nc2n[nH]cc21 (stereo not drawn) [Compound 826716]", "UniProt:P49840", "IC50", "100 to 1000 nM"]
]}

Prompt: Fill blank: measured IC50 of the compound CC[C@@]1(c2ccccc2)C2=C(C[C@@H](c3ccccc3)CC2=O)Nc2n[nH]cc21 [Compound 791265] is ____.
Completion: 1000 to 5000 nM

Prompt: Could you tell me which IC50 is on file for CC[C@]1(c2cccc(C(F)(F)F)c2)C2=C(CCN(c3cnc(OC)nc3)C2=O)Nc2n[nH]cc21 [Compound 949127] ?
Completion: 1000 to 5000 nM

Prompt: So what's the measured IC50 for this one? CC[C@]1(c2cccc(-c3cc(C)ncc3F)c2)C2=C(CC(C)(C)NC2=O)Nc2n[nH]cc21 [Compound 947822]
Completion: 100 to 1000 nM

Prompt: What measured IC50 goes with CC1(C)CC(=O)C2=C(C1)Nc1n[nH]c(C3(C(F)(F)F)CC3)c1C21CCc2c(F)cccc21 (stereo not drawn) [Compound 816839] ?
Completion: > 5000 nM

Prompt: Quick one: IC50 for CCC1(c2cccc(-c3cnn(C)c3)c2)C2=C(CC(C)(C)CC2=O)Nc2n[nH]cc21 (stereo not drawn) [Compound 819577] ?
Completion: ≤ 100 nM

Prompt: Given the entry CCC1(c2cccc(N3CCOCC3)c2)C2=C(CC(C)(C)CC2=O)Nc2n[nH]c(C(F)(F)F)c21 (stereo not drawn) [Compound 816886] , report its measured IC50.
Completion: 1000 to 5000 nM

Prompt: What IC50 value was documented for this compound, CC[C@@]1(c2cccc(C(F)(F)F)c2)C2=C(CCN(c3ccc(F)cc3)C2=O)Nc2n[nH]cc21 [Compound 948224] ?
Completion: ≤ 100 nM

Prompt: Name the reported IC50 value associated with the compound CC[C@]1(c2cccc(N3CCCC3)c2)C2=C(CC(C)(C)CC2=O)Nc2n[nH]c(C(F)(F)F)c21 [Compound 819574]
Completion: ≤ 100 nM

Prompt: So what does the record say about IC50 for CC[C@@]1(c2cccc(S(C)(=O)=O)c2)C2=C(CC(C)(C)NC2=O)Nc2n[nH]c(C(F)(F)F)c21 [Compound 948422] ?
Completion: 100 to 1000 nM
